- Experimental protocol: Octanol/water partition coefficient, logD of the compound at pH 7.4 by shake flask method
- Assay type: physicochemical
Outcome measure: logD

| Compound | logD |
| --- | --- |
| COc1cc(C(F)F)c(O[C@H]2CC[C@@](C)(C(=O)O)CC2)cc1C(=O)N[C@@H]1[C@H]2CC[C@H](C2)[C@@H]1C(=O)NCC1(C)CCC1 | 3.8 |
| COc1cc(F)c(O[C@H]2C[C@@](C)(C(=O)O)C2)cc1C(=O)N[C@@H]1[C@H]2CC[C@H](C2)[C@@H]1C(=O)NCC1(C)CCC1 | 2 |
| COc1c(C#N)cc(O[C@H]2CC[C@@](C)(C(=O)O)CC2)cc1C(=O)N[C@@H]1[C@H]2CC[C@H](C2)[C@@H]1C(=O)NCC1(C)CCC1 | 2.9 |
| COc1cc(F)c(O[C@H]2CC[C@](C(=O)O)(C(F)(F)F)CC2)cc1C(=O)N[C@@H]1[C@H]2CC[C@H](C2)[C@@H]1C(=O)NCC1(C)CCC1 | 2.1 |
| COc1cc(F)c(O[C@H]2CC[C@@](C)(c3n[nH]c(=O)o3)CC2)cc1C(=O)N[C@@H]1[C@H]2CC[C@H](C2)[C@@H]1C(=O)NCC1(C)CCC1 | 5.4 |

a. COc1cc(S(C)(=O)=O)c(O[C@H]2CC[C@@](C)(C(=O)O)CC2)cc1C(=O)N[C@@H]1[C@H]2CC[C@H](C2)[C@@H]1C(=O)NCC1(C)CCC1
b. CC1(CNC(=O)[C@H]2C3CCC(C3)[C@H]2NC(=O)c2cc(O[C@H]3CC[C@@](C)(C(=O)O)CC3)c(C#N)cc2F)CCC1 (stereo not given in full)
Field: entry with larger logD (options a / b ). Give the label of your selection. b

###

- Experimental protocol: Metabolic stability in human liver microsomes assessed as unbound intrinsic clearance at 1 uM measured upto 30 mins by LC-MS/MS analysis
- Type: ADME, Microsome
- Measurement conditions: 0.5 h
Outcome measure: CL free (µL/min/mg)

Here are 3 compounds together with their reported answers.
| Smiles structure | CL free / µL/min/mg |
| --- | --- |
| CC1(CNC(=O)[C@H]2[C@@H]3CC[C@@H](C3)[C@H]2N2CCc3cc(F)c(O[C@H]4CC[C@@](C)(C(=O)O)CC4)cc3C2=O)CCC1 | 70 |
| COc1cc(F)c(O[C@H]2CC[C@@](C)(c3nnn[nH]3)CC2)cc1C(=O)N[C@@H]1[C@H]2CC[C@H](C2)[C@@H]1C(=O)NCC1(C)CCC1 | 29 |
| COc1c(F)cc(O[C@H]2CC[C@@](C)(C(=O)O)CC2)cc1C(=O)N[C@@H]1[C@H]2CC[C@H](C2)[C@@H]1C(=O)NCC1(C)CCC1 | 73 |

P. COc1cc(F)c(C[C@H]2CC[C@@](C)(C(=O)O)CC2)cc1C(=O)N[C@@H]1[C@H]2CC[C@H](C2)[C@@H]1C(=O)NCC1(C)CCC1
Q. COc1cc(C)c(O[C@H]2CC[C@@](C)(C(=O)O)CC2)cc1C(=O)N[C@@H]1[C@H]2CC[C@H](C2)[C@@H]1C(=O)NCC1(C)CCC1
R. CCc1cc(OC)c(C(=O)N[C@@H]2[C@H]3CC[C@H](C3)[C@@H]2C(=O)NCC2(C)CCC2)cc1O[C@H]1CC[C@@](C)(C(=O)O)CC1
S. COc1cc(F)c(O[C@H]2C[C@@](C)(C(=O)O)C2)cc1C(=O)N[C@@H]1[C@H]2CC[C@H](C2)[C@@H]1C(=O)NCC1(C)CCC1
List these items ordered by CL free, big to small. Use the labels to give the requested order. P, R, Q, S
(P: 269 µL/min/mg, R: 83 µL/min/mg, Q: 54 µL/min/mg, S: 10 µL/min/mg)

###

- Experimental protocol: Metabolic stability in human hepatocytes assessed as intrinsic clearance measured per 10^6 viable cells/ml at 1 uM measured upto 120 mins by LC-MS/MS analysis
- Type: ADME, cell-based, Hepatocyte
- Measurement conditions: read-out: CLH
Outcome measure: hepatocyte CLint at 1 µM (µL/min/1e6 cells)
Write the value in µL/min/1e6 cells as a bare number.

Here are 3 compounds together with their reported answers.
| Smiles structure | Result |
| --- | --- |
| CC1(CNC(=O)[C@H]2[C@@H]3CC[C@@H](C3)[C@H]2NC(=O)c2cc(O[C@H]3CC[C@@](C)(C(=O)O)CC3)c(F)cc2O)CCC1 | 58 |
| COc1cc(F)c(O[C@H]2CC[C@@](C)(c3n[nH]c(=O)o3)CC2)cc1C(=O)N[C@@H]1[C@H]2CC[C@H](C2)[C@@H]1C(=O)NCC1(C)CCC1 | 73 |
| COc1c(F)cc(O[C@H]2CC[C@@](C)(C(=O)O)CC2)cc1C(=O)N[C@@H]1[C@H]2CC[C@H](C2)[C@@H]1C(=O)NCC1(C)CCC1 | 5.3 |

Reported hepatocyte CLint at 1 µM for `COc1cc(C#N)c(O[C@H]2CC[C@@](C)(C(=O)O)CC2)cc1C(=O)N[C@@H]1[C@H]2CC[C@H](C2)[C@@H]1C(=O)NCC1(C)CCC1` was 5.5

Reported hepatocyte CLint at 1 µM for `COc1c(C)cc(O[C@H]2CC[C@@](C)(C(=O)O)CC2)cc1C(=O)N[C@@H]1[C@H]2CC[C@H](C2)[C@@H]1C(=O)NCC1(C)CCC1` was 5.6

Reported hepatocyte CLint at 1 µM for `COc1cc(F)c(O[C@H]2C[C@@](C)(C(=O)O)C2)cc1C(=O)N[C@@H]1[C@H]2CC[C@H](C2)[C@@H]1C(=O)NCC1(C)CCC1` was 4.3

###

- Experimental protocol: Metabolic stability in human liver microsomes assessed as intrinsic clearance at 1 uM measured upto 30 mins by LC-MS/MS analysis
- Format: ADME, Microsome
- Measurement conditions: read-out: CLH
Outcome measure: microsomal CLint at 1 µM (µL/min/mg)

Here are 3 compounds together with their reported answers.
| Smiles structure | microsomal CLint at 1 µM, µL/min/mg |
| --- | --- |
| COc1cc(C#N)c(O[C@H]2CC[C@@](C)(C(=O)O)CC2)cc1C(=O)N[C@@H]1[C@H]2CC[C@H](C2)[C@@H]1C(=O)NCC1(C)CCC1 | 20 |
| COc1cc(F)c(O[C@H]2C[C@@](C)(C(=O)O)C2)cc1C(=O)N[C@@H]1[C@H]2CC[C@H](C2)[C@@H]1C(=O)NCC1(C)CCC1 | 7.6 |
| COc1cc(F)c(O[C@H]2CC[C@@](C)(C(=O)O)CC2)cc1C(=O)N[C@@H]1[C@H]2CC[C@H](C2)[C@@H]1C(=O)NCC(C)C | 5.7 |

a. Cc1cc(F)c(O[C@H]2CC[C@@](C)(C(=O)O)CC2)cc1C(=O)N[C@@H]1[C@H]2CC[C@H](C2)[C@@H]1C(=O)NCC1(C)CCC1
b. CC1(CNC(=O)[C@H]2[C@@H]3CC[C@@H](C3)[C@H]2NC(=O)c2cc(O[C@H]3CC[C@@](C)(C(=O)O)CC3)c(C#N)cn2)CCC1
Field: entry with larger microsomal CLint at 1 µM (options a / b ). Give the label of your selection. a

###

- Experimental protocol: Metabolic stability in human liver microsomes assessed as intrinsic clearance at 1 uM measured upto 30 mins by LC-MS/MS analysis
- Assay type: ADME, Microsome
- Measurement conditions: read-out: CLH
Outcome measure: microsomal CLint at 1 µM (µL/min/mg)

Here are 5 molecules together with their reported answers.
| Smiles structure | microsomal CLint at 1 µM [µL/min/mg] |
| --- | --- |
| COc1c(F)cc(O[C@H]2CC[C@@](C)(C(=O)O)CC2)cc1C(=O)N[C@@H]1[C@H]2CC[C@H](C2)[C@@H]1C(=O)NCC1(C)CCC1 | 44 |
| COc1cc(Cl)c(O[C@H]2CC[C@@](C)(C(=O)O)CC2)cc1C(=O)N[C@@H]1[C@@H]2CC[C@@H](C2)[C@@H]1C(=O)NCC1(C)CCC1 | 20 |
| CC1(CNC(=O)[C@H]2[C@@H]3CC[C@@H](C3)[C@H]2NC(=O)c2cc(O[C@H]3CC[C@@](C)(C(=O)O)CC3)c(F)cc2OCF)CCC1 | 36 |
| COc1cc(F)c(O[C@H]2CC[C@@H](C(=O)O)CC2)cc1C(=O)N[C@@H]1[C@H]2CC[C@H](C2)[C@@H]1C(=O)NCC(C)(C)C | 6.8 |
| CC1(CNC(=O)[C@H]2[C@@H]3CC[C@@H](C3)[C@H]2NC(=O)c2cc(O[C@H]3CC[C@@](C)(C(=O)O)CC3)cc3c2OCC3)CCC1 | 25 |

P. COc1cc(C)c(O[C@H]2CC[C@@](C)(C(=O)O)CC2)cc1C(=O)N[C@@H]1[C@H]2CC[C@H](C2)[C@@H]1C(=O)NCC1(C)CCC1
Q. CC1(CNC(=O)[C@H]2[C@@H]3CC[C@@H](C3)[C@H]2NC(=O)c2ccc(F)c(O[C@H]3CC[C@@](C)(C(=O)O)CC3)c2)CCC1
R. COc1cc(S(C)(=O)=O)c(O[C@H]2CC[C@@](C)(C(=O)O)CC2)cc1C(=O)N[C@@H]1[C@H]2CC[C@H](C2)[C@@H]1C(=O)NCC1(C)CCC1
S. COc1cc(C(F)F)c(O[C@H]2CC[C@@](C)(C(=O)O)CC2)cc1C(=O)N[C@@H]1[C@H]2CC[C@H](C2)[C@@H]1C(=O)NCC1(C)CCC1
# ascending order, key=microsomal CLint at 1 µM Use the labels to give the requested order. Q, R, S, P
